Entries and their pIC50
MEASUREMENT_TARGET: human PAR4 (Homo sapiens)
ASSAY_DETAILS: PAR4 FLIPR assay: antagonism of agonist-peptide-induced calcium mobilization in PAR4-expressing HEK293 cells
MEASUREMENT_PARAMETERS: H-Ala-Phe(4-F)-[…]NH2-induced intracellular calcium mobilization, 11-point curves
Remember, pIC50 is on a log scale: it is -log10 of the molar concentration.

What does the record list as pIC50 for CCOc1cnc2c(-c3nc4cc(F)c(O[C@@H](C)[C@@H](C)OC(=O)Nc5cnc([C@@H](C)O)nc5)cc4s3)cc(C)cc2n1 ?
8.31

Given the entry COc1cnc2c(-c3nc4c(Cl)c(F)c(OCCOC(=O)Nc5cccnc5)cc4s3)cc(C)cc2n1 , report its measured pIC50.
8.04

Recorded pIC50 of COc1cc(C)c2nc(-c3cc(C)cc4nc(C(F)(F)OC)cnc34)sc2c1 , please.
7.77

So what's the measured pIC50 for this one? COc1cnc2c(-c3nc4cc(F)c(O[C@@H](C)[C@@H](C)OC(=O)Nc5cnc(C)nc5)nc4s3)cc(C)cc2n1
9.05

Query: pIC50; subject: COCc1cnc2c(-c3nc4ccc(F)cc4s3)cc(C)cc2n1
8.49

GET /values?readout=pIC50&item= COc1cnc2c(-c3nc4cc(F)c(OC[C@@H](C)OC(=O)Nc5ccc(C(=O)N6CC[C@H](CO)C6)nc5)cc4s3)cc(C)cc2n1
8.85

Can you look up the measured pIC50 of COc1cnc2c(-c3nc4cc(F)c(OC[C@H](C)OC(=O)Nc5cccnc5)cc4s3)cc(C)cc2n1 for me?
8.43

###

Documented pIC50 across a set of compounds
MEASUREMENT_TARGET: human PAR4 (Homo sapiens, UniProt Q96RI0)
Sequence (Q96RI0 18-385): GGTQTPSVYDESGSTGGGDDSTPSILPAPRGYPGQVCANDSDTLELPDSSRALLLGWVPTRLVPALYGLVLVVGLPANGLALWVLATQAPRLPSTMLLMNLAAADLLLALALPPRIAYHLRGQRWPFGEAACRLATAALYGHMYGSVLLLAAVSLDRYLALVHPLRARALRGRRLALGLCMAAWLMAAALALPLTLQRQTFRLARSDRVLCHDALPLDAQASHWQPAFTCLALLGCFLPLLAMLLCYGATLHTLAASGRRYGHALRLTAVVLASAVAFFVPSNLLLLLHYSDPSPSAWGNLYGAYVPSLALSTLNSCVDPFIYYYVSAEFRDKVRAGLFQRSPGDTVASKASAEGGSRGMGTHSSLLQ
ASSAY_DETAILS: PAR4 FLIPR assay: antagonism of agonist-peptide-induced calcium mobilization in PAR4-expressing HEK293 cells
MEASUREMENT_PARAMETERS: H-Ala-Phe(4-F)-[…]NH2-induced intracellular calcium mobilization, 11-point curves
Remember, pIC50 is on a log scale: it is -log10 of the molar concentration.

COc1cnc2c(-c3nc4cc(F)c(O[C@@H](C)[C@@H](C)OC(=O)Nc5ccnc(OCCO)c5)cc4s3)cc(C)cc2n1 : 9.15
COc1cnc2c(-c3nc4cc(F)c(OC[C@@H](C)OC(=O)Nc5cnc(OC)nc5)nc4s3)cc(C)cc2n1 : 8.60
COCCOc1cccc2nc(-c3cc(C)cc4nc(OC(F)F)cnc34)sc12 : 7.85

What value of measured pIC50 is listed for COC(=O)c1cnc2c(-c3cc4ccccc4o3)cc(C)cc2n1 ?
6.01

Can you look up the measured pIC50 of CNC(=O)c1cc(NC(=O)O[C@H](C)COc2cc3sc(-c4cc(C)cc5nc(OC)cnc45)nc3c(Cl)c2F)ccn1 for me?
8.23

Looking for the measured pIC50 of COc1cnc2c(-c3nc4cc(F)c(OC[C@@H](C)OC(=O)Nc5cncc(CO)c5)cc4s3)cc(C)cc2n1 , can you help?
8.68

Which pIC50 value is on record for COc1cnc2c(-c3nc4c(Cl)c(F)c(OC[C@@H](C)OC(=O)Nc5ccc6[nH]c(=O)oc6c5)cc4s3)cc(C)cc2n1 ?
9.05
